Test system: NCI/ADR-RES ovarian
assay details: NCI tumour cell line growth inhibition, 48 h
Where a SMILES comes first, the peptide text is derived from it. [ ]: non-standard residue; d: D form. The star is where a group is joined. ξ: configuration not given here. ξF = NC(Cc1ccccc1)C(=O)O; Cbz = O=C(OCc1ccccc1)*; Aib = CC(C)(N)C(=O)O
property: TGI

Fill in the blank: the reported TGI of Cn1cc(C2=C(c3cn(-c4ccccc4)c4ccccc34)C(=O)NC2=O)c2ccccc21 is ____.
> 25 µM

Fill in the blank: the reported TGI of OC[C@H]1NC[C@@H](O)[C@@H](O)[C@H]1O is ____.
> 100 µM

New cases:
Fill in the blank: the reported TGI of Cc1[nH]c(=O)[nH]c(=O)c1/C=C/C(=O)NC(CO)CS(=O)CS(C)=O (stereo not given) is ____.
263 µM

Fill in the blank: the reported TGI of O=c1c2ccccc2c(/C=N\NC2=NCCN2)c2oc3ccccc3n12 is ____.
> 100 µM

Fill in the blank: the reported TGI of O=C(O)c1ccccc1CC1Cc2cc3c(cc2C1)CCC3 is ____.
> 100 µM

Fill in the blank: the reported TGI of COc1cc(C2OC(N)=C(C#N)C3=C2C(C)CCC3)cc(OC)c1OC (stereo not given) is ____.
> 100 µM

Fill in the blank: the reported TGI of CCOC(=O)CNC(=O)C(Cc1ccccc1)NC(=O)C(C)(C)NC(=O)OCc1ccccc1 (stereo not given) (Cbz-[Aib]-[ξF]-Gly-OEt) is ____.
> 100 µM

Fill in the blank: the reported TGI of COc1cc(/C=N/c2nc3cc4sc(/N=C/c5cc(OC)c(OC)c(OC)c5)nc4cc3s2)cc(OC)c1OC is ____.
> 100 µM
